Target: Nuclear factor of activated T-cells, cytoplasmic 1 (Homo sapiens)
Experiment: Inhibition of NFATC activity in HEK293T cells preincubated for 2 hrs followed by ionomycin/phorbol 12-myristate 13-acetate stimulation and measured after 4 hrs by luciferase reporter assay
Format: cell-based
Details: dose 0.1-50 µM, time 6.0 hrs, DDE = dose-dependent effect
measurement_name: inhibition

CS(=O)(=O)NCc1cccc(NC(=O)c2ccc3[nH]ccc3c2)c1	Dde
Cc1ccc(C(=O)NCC(=O)Nc2cc(S(=O)(=O)Nc3ccc(Cl)cc3)ccc2Cl)s1	Dde
CS(=O)(=O)NCc1cccc(NC(=O)c2csc3ccccc23)c1	Dde
O=C(CNC(=O)c1ccc2[nH]ccc2c1)Nc1cccc(S(=O)(=O)N2CCCCC2)c1	Dde

Provenance of the data: ChEMBL document CHEMBL5126596
